These data points were gathered from patent US20030068675.

Molecular target: ZFP SBS#1007 (synthetic)
Sequence (chain, as listed by the source): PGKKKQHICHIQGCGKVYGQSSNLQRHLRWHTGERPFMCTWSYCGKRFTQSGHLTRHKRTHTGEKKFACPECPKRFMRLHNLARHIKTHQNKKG
Experiment: EMSA
Settings: tags: MBP fusion
ASSAY READOUT: pKd
// pKd: -log10(molar conc.)

Task: Please report the recorded pKd for GAGAGAGAT (dsDNA) DNA 1: GAGAGAGAT DNA 2: ATCTCTCTC .
Output: 6.78
